# Test system: LTC4 synthesis in human basophilic leucocytes
# assay-explanation: Inhibition of arachidonic acid induced LTC4 synthesis
# Assay type: cell-based
# assay-context: Leucocyte, HPLC, UV 280 nm
pIC50: −log10 of the molar value.

compound	study-target	pIC50
COc1ccc(C2CC(=O)N(O)C2)cc1OC1CCCC1 (stereo not shown) [Example 1]	LTC4 synthesis in human basophilic leucocytes	5.49

----------
# study-target: PDE III (Homo sapiens, UniProt Q14432)
# Construct: PDE isoenzymes were isolated using DEAE-Sepharose chromatography; the cited Reeves et al. 1987 used human and guinea-pig cardiac ventricle (own knowledge)
# Sequence (Q14432 whole entry): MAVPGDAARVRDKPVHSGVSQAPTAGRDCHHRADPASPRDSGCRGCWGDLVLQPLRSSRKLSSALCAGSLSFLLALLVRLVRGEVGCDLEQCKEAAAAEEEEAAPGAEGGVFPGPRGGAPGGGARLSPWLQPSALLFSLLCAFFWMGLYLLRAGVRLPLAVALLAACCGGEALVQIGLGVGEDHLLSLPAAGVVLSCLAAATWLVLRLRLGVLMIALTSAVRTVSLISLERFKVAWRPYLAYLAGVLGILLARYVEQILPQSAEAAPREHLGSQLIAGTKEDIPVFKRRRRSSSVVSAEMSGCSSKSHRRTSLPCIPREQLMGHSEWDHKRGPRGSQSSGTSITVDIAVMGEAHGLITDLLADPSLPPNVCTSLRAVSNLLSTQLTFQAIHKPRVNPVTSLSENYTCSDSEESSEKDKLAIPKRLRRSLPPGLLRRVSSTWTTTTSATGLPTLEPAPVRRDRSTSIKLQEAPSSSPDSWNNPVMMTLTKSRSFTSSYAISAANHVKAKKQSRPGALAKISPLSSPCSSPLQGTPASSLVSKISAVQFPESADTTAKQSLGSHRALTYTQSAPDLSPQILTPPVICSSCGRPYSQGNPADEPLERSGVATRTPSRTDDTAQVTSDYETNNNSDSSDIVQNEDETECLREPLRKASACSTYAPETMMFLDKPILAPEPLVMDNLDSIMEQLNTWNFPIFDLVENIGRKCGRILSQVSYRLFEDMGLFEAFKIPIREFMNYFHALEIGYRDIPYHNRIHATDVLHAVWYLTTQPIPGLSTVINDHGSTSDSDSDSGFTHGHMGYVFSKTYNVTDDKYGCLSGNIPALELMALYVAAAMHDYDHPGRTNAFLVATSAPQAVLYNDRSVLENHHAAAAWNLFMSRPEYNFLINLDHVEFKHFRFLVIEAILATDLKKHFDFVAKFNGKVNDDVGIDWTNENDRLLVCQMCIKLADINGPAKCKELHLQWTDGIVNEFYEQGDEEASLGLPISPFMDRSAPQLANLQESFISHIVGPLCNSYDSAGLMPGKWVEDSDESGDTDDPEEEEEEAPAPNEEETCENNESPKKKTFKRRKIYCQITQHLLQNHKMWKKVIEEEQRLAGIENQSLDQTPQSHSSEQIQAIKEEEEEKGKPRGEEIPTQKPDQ
# assay-explanation: Inhibition of PDE III
# assay-context: PDE isoenzymes isolated using DEAE-Sepharose chromatography
# Protocol: PDE isoenzymes were isolated using DEAE-Sepharose chromatography as described by Reeves et al. in Biochem. J., 241 (1987), pp. 535-541. PDE IV and PDE III activities were determined by the method of Alajoutsijarvi and Nissinen as described in Anal. Biochem. 165 (1987), pp. 128-132.
pIC50: −log10 of the molar value.

molecule	study-target	pIC50
COc1ccc(C2CC(=O)N(O)C2)cc1OC1CCCC1 (stereo not shown)	PDE III (Homo sapiens, UniProt Q14432)	3.69

# credit: patent US5356923A
